Ref: ChEMBL document CHEMBL1614631

# assay_summary: Dose normalised AUC in monkey after po administration
# assay_conditions: macaca, in vivo
Listing of recorded DNAUC by entry.
I only need the number, in kg·min/L, no unit after it.

Some solved cases for reference:
Recorded DNAUC for C1=C(c2ccccc2)CCN(C[C@@H]2CCC=C(c3ccccc3)C2)C1 [CI-1007] , please?
2.34

Recorded DNAUC for NCC1(CC(=O)O)CCCCC1 [GABAPENTIN] , please?
156.24

Recorded DNAUC for COc1ccc(C(C)C)cc1CN[C@H]1C2CCN(CC2)[C@H]1C(c1ccccc1)c1ccccc1 [EZLOPITANT] , please?
0.6

Recorded DNAUC for O=C(O)CCc1nc(-c2ccccc2)c(-c2ccccc2)o1 [OXAPROZIN] , please?
2.85

Below: the item to evaluate.
Recorded DNAUC for COc1ccc(C(CN(C)C)C2(O)CCCCC2)cc1 (stereo not given) [VENLAFAXINE] , please?
1.8

---

# assay_summary: Dose normalised AUC in rat after po administration
# assay_conditions: in vivo
measurement_name: DNAUC (kg·min/L)
I only need the number, in kg·min/L, no unit after it.

Recorded DNAUC for "CC(C)(C)NC(=O)[C@@H]1CN(Cc2cccnc2)CCN1C[C@@H](O)C[C@@H](Cc1ccccc1)C(=O)N[C@H]1c2ccccc2C[C@H]1O.O" , please?
3.13

More entries:
Recorded DNAUC for NS(=O)(=O)c1cc(C(=O)O)c(NCc2ccco2)cc1Cl [FUROSEMIDE] , please?
44.73

Recorded DNAUC for "O=c1ccc2ccccc2o1" , please?
37.5

Recorded DNAUC for Cc1c(C)c2c(c(C)c1O)CCC(C)(COc1ccc(CC3SC(=O)NC3=O)cc1)O2 (centres undefined) , please?
13.44

---

# assay_summary: Dose normalised AUC in monkey after po administration
# assay_conditions: macaca, in vivo
Listing of recorded DNAUC by entry.
I only need the number, in kg·min/L, no unit after it.

Recorded DNAUC for Cc1nc(=O)c(C#N)c(NCc2cccnc2)[nH]1 [PELRINONE] , please?
39.2

Recorded DNAUC for NS(=O)(=O)Cc1noc2ccccc12 [ZONISAMIDE] , please?
2097

Recorded DNAUC for CC1=NC(=O)C(CCN(C(C)C)C(C)C)(c2ccccc2)C2CCCCN12 (stereo not drawn) [ACTISOMIDE] , please?
26.46

Recorded DNAUC for CCCCN1C[C@H](O)[C@@H](O)[C@H](O)[C@H]1CO [MIGLUSTAT] , please?
166.88

Recorded DNAUC for CC(C)N(CCC(C(N)=O)(c1ccccc1)c1ccccn1)C(C)C (stereo not drawn) [DISOPYRAMIDE] , please?
2.2

More entries:
Recorded DNAUC for O=C(c1ccccc1)c1ccc2n1CCC2C(=O)O (stereo not drawn) [KETOROLAC] , please?
1912.26

Recorded DNAUC for CC(C)NCC(O)COc1cccc2ccccc12 (stereo not drawn) [PROPRANOLOL] , please?
1.32

Recorded DNAUC for CC(=O)NCCOC(=O)C(Oc1cccc(C(F)(F)F)c1)c1ccc(Cl)cc1 (stereo not drawn) [HALOFENATE] , please?
3918.28

Recorded DNAUC for Cc1ncc2n1-c1ccc(Cl)cc1C(c1ccccc1F)=NC2 [MIDAZOLAM] , please?
4.17

Recorded DNAUC for O=C(O)c1cn(C2CC2)c2cc(N3CCNCC3)c(F)cc2c1=O [CIPROFLOXACIN] , please?
85.2

Recorded DNAUC for CN(C)CCCC1(c2ccc(F)cc2)OCc2cc(C#N)ccc21 (stereo not drawn) [CITALOPRAM] , please?
9.85

---

# assay_summary: Dose normalised AUC in dog after po administration
# assay_conditions: in vivo
measurement_name: DNAUC (kg·min/L)
I only need the number, in kg·min/L, no unit after it.

Some solved cases for reference:
Recorded DNAUC for COc1c(N2C[C@@H]3CCCN[C@@H]3C2)c(F)cc2c(=O)c(C(=O)O)cn(C3CC3)c12 [MOXIFLOXACIN] , please?
245.95

Recorded DNAUC for CC(C)N(CCC(C(N)=O)(c1ccccc1)c1ccccn1)C(C)C (stereo not given) [DISOPYRAMIDE] , please?
101.6

Recorded DNAUC for CCn1cc(C(=O)O)c(=O)c2cc(F)c(N3CCN(C)CC3)cc21 [PEFLOXACIN] , please?
120

Recorded DNAUC for O=C(O)CCc1nc(-c2ccccc2)c(-c2ccccc2)o1 [OXAPROZIN] , please?
3.2

Recorded DNAUC for CCCCN1C[C@H](O)[C@@H](O)[C@H](O)[C@H]1CO [MIGLUSTAT] , please?
204

More entries:
Recorded DNAUC for COc1ccc2c(c1)c(CC(=O)O)c(C)n2C(=O)c1ccc(Cl)cc1 [INDOMETHACIN] , please?
793.3

Recorded DNAUC for CC(C)NCC(O)COc1cccc2ccccc12 (stereo not given) [PROPRANOLOL] , please?
8.32

Recorded DNAUC for C#C[C@]1(O)CC[C@H]2[C@@H]3CCc4cc(O)ccc4[C@H]3CC[C@@]21C [ETHINYL ESTRADIOL] , please?
4.5

Recorded DNAUC for CN1CCN(c2c(F)cc3c(=O)c(C(=O)O)cn(CCF)c3c2F)CC1 [FLEROXACIN] , please?
618

Recorded DNAUC for Cc1cnc(NC(=O)C2=C(O)c3ccccc3S(=O)(=O)N2C)s1 [MELOXICAM] , please?
6870

---

# assay_summary: Dose normalised AUC in human after po administration
# assay_conditions: in vivo
measurement_name: log10 of DNAUC (log10 of the value in kg·min/L)
Would you kindly interpret these values as log10 of DNAUC expressed in kg·min/L?

Recorded log10 of DNAUC for Cc1nc(=O)c(C#N)c(NCc2cccnc2)[nH]1 [PELRINONE] , please?
2.18

More entries:
Recorded log10 of DNAUC for CC1(C)O[C@@H]2C[C@H]3[C@@H]4C[C@H](F)C5=CC(=O)C=C[C@]5(C)[C@H]4[C@@H](O)C[C@]3(C)[C@]2(C(=O)CO)O1 [FLUNISOLIDE] , please?
1.22

Recorded log10 of DNAUC for NS(=O)(=O)c1cc(C(=O)O)c(NCc2ccco2)cc1Cl [FUROSEMIDE] , please?
2.27

Recorded log10 of DNAUC for COCCc1ccc(OCC(O)CNC(C)C)cc1 (stereo unspecified) [METOPROLOL] , please?
1.40

Recorded log10 of DNAUC for C[C@H](C(=O)O)c1ccc2oc(-c3ccc(F)cc3)nc2c1 [FLUNOXAPROFEN] , please?
3.45

Recorded log10 of DNAUC for CC(C(=O)O)c1ccc(-c2ccccc2)c(F)c1 (stereo unspecified) [FLURBIPROFEN] , please?
3.46

---

# assay_summary: Dose normalised AUC in dog after po administration
# assay_conditions: in vivo
Listing of recorded DNAUC by entry.
# number then unit; no other words

Recorded DNAUC for CC1COc2c(N3CCN(C)CC3)c(F)cc3c(=O)c(C(=O)O)cn1c23 (centres undefined) , please?
407.7 kg·min/L

Recorded DNAUC for "CC(C)c1nc(CN(C)C(=O)N[C@H](C(=O)N[C@@H](Cc2ccccc2)C[C@H](O)[C@H](Cc2ccccc2)NC(=O)OCc2cncs2)C(C)C)cs1" , please?
101.08 kg·min/L

Recorded DNAUC for CC(=O)NCCOC(=O)C(Oc1cccc(C(F)(F)F)c1)c1ccc(Cl)cc1 (centres undefined) [HALOFENATE] , please?
390.13 kg·min/L

Below: the item to evaluate.
Recorded DNAUC for O=C(c1ccccc1)c1ccc2n1CCC2C(=O)O (centres undefined) , please?
1352.94 kg·min/L

---

# assay_summary: Dose normalised AUC in dog after po administration
# assay_conditions: in vivo
Listing of recorded log10 of DNAUC by entry.
Would you kindly interpret these values as log10 of DNAUC expressed in kg·min/L?

Some solved cases for reference:
Recorded log10 of DNAUC for "CN1C(C(=O)Nc2nccs2)=C(O)c2ccccc2S1(=O)=O" , please?
3.74

Recorded log10 of DNAUC for "CC(C)(C)NC(=O)[C@@H]1CN(Cc2cccnc2)CCN1C[C@@H](O)C[C@@H](Cc1ccccc1)C(=O)N[C@H]1c2ccccc2C[C@H]1O.O" , please?
1.66

Recorded log10 of DNAUC for "C1=C(c2ccccc2)CCN(C[C@@H]2CCC=C(c3ccccc3)C2)C1" , please?
0.16

Recorded log10 of DNAUC for "CCCCCNC(=O)c1coc([C@H]2[C@@H](Cc3ccccc3CCC(=O)O)[C@@H]3CC[C@H]2O3)n1" , please?
0.98

Recorded log10 of DNAUC for O=C(O)C(Cl)c1ccc(C2CCCCC2)c(Cl)c1 (stereo not drawn) , please?
3.39

More entries:
Recorded log10 of DNAUC for "CC(=O)[C@H]1CC[C@H]2[C@@H]3CC[C@H]4C[C@](C)(O)CC[C@]4(C)[C@H]3CC[C@]12C" , please?
1.89

Recorded log10 of DNAUC for CC1=NC(=O)C(CCN(C(C)C)C(C)C)(c2ccccc2)C2CCCCN12 (stereo not drawn) [ACTISOMIDE] , please?
1.86

Recorded log10 of DNAUC for CN(C)CCCC1(c2ccc(F)cc2)OCc2cc(C#N)ccc21 (stereo not drawn) , please?
0.94
